Numbers sourced from patent US20210087291A1.

target-entity: T1, monomeric human Tim3-ECD (human, UniProt Q8TDQ0 22-202)
T1 construct: also called huTim3
assay-details: SPR Biacore, antibody captured by anti-mouse IgG
pKd: −log10 of the molar value.
Tag: T if measured pKd is not below 8, F if it is.

| binder | label-value |
| --- | --- |
| Tim3_0016 variant (Tim3_0018) (antibody, V domains shown, also called TIM3-0016 variant (0018); aTim3 0018) VH: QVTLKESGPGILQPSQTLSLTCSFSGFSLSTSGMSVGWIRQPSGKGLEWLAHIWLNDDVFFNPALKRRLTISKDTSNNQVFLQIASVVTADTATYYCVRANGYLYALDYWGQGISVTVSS VL: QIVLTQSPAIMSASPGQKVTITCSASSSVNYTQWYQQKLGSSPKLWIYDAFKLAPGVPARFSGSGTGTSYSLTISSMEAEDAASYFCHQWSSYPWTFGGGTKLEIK | T |
| Tim3_0021 (antibody, V domains shown) VH: QVQLQQSGPQLVRPGASVQISCKASGYSFTSYLLHWLKQRPGQGLEWIGMIDPSDSETRLNQKFKDKATLTVDKSSSTAYMQLSSPTSEDSAVYYCARDGYYAWYYFDCWGQGTTLTVSS VL: DIVLTQSPATLSVTPGDRVSLSCRASQSIGNNLHWYQQKSHESPRLLIKYASHSISGIPSKFSGTGSGTDFTLSFNSVETEDFGMYFCQQSNSWPLTFGAGTKLELK | F |
| Tim3_0022 (antibody, V domains shown) VH: EVQLQESGPSLVKPSQTLSLTCSVTGDSIASAYWNWIRKFPGNKLEYMGYINYSGSTYYNPSLKSRISITRDTSQNQYYLQLNSVTTEDTATYYCVTGDYFDYWGRGTTLTVSS VL: DIQMTQSPSSLSAYLGGKVTITCKARQDVRKNIGWYQHKPGKGPRLLIWYTSTLQSGIPSRFSGSGSGRDYSFNINNLEPEDIATYYCLQYDNLPFTFGTGTKLEIR | F |

Q. Has Tim3_0030 (antibody, V domains shown) VH: QIQLVQSGPELKKPGETVKISCKASGYPFSEYSIHWVKQAPGKGLKWMVYVNTETGQPIVGDDFRGRFVLSLETSASTAYLQINNLKNEDTATYFCGGGGYPAYWGQGTLVTVSA VL: DVLMTQTPLSLPVSLGDQASISCRSSRSIVHSSGNTYLEWYLQKPGQSPKLLIYKVSNRFSGVPDRFSGSGSGTDFTLNISRVEAEDLGVYYCFQDSHVPFTFGTGTKLEIK a recorded pKd greater than or equal to 8?
A. T
